Molecular target: chymotrypsin-like activity of purified bovine erythrocyte 20S proteasome (Bos taurus, UniProt Q32KL2)
Construct: from tissue; host or cells: bovine erythrocytes (red blood cells)
Experiment: Enzyme kinetic assay, chymotrypsin-like activity (Suc-LLVY-AMC)
Type: biochemical
Settings: Examples 9 and 10; in M-1s-1
readout-kind: kobs/[I] for chymotryptic-like activity using Suc-LLVY-AMC

Look at this molecule and give its reported kobs/[I] for chymotryptic-like activity using Suc-LLVY-AMC. CC(=O)N[C@@H](CC(C)C)C(=O)N[C@@H](CC(C)C)C(=O)N[C@@H](C)C(=O)N[C@@H](CC(C)C)C(=O)[C@@]1(C)CO1 [Ac-LLAL-epoxide]
16,000

Which value of kobs/[I] for chymotryptic-like activity using Suc-LLVY-AMC has been reported for CC(=O)N[C@@H](CCc1ccccc1)C(=O)N[C@@H](CC(C)C)C(=O)N[C@@H](CC(C)C)C(=O)N[C@@H](CC(C)C)C(=O)[C@@]1(C)CO1 in the records?
63,000

Look up kobs/[I] for chymotryptic-like activity using Suc-LLVY-AMC for this molecule: CC(=O)N[C@@H](Cc1ccccc1)C(=O)N[C@@H](CC(C)C)C(=O)N[C@@H](CC(C)C)C(=O)N[C@@H](CC(C)C)C(=O)[C@@]1(C)CO1
37,000

Item CC(=O)N[C@@H](CC(C)C)C(=O)N[C@@H](C)C(=O)N[C@@H](CC(C)C)C(=O)N[C@@H](CC(C)C)C(=O)[C@@]1(C)CO1 [Ac-LALL-epoxide] has what recorded kobs/[I] for chymotryptic-like activity using Suc-LLVY-AMC?
1,300

Data request, read-out kobs/[I] for chymotryptic-like activity using Suc-LLVY-AMC, for CC(=O)N[C@@H](CC(C)C)C(=O)N[C@@H](Cc1ccccc1)C(=O)N[C@@H](CC(C)C)C(=O)N[C@@H](CC(C)C)C(=O)[C@@]1(C)CO1 [Ac-LFLL-epoxide]
8,500

What value of kobs/[I] for chymotryptic-like activity using Suc-LLVY-AMC has been recorded for this entry: CC(=O)N[C@@H](CC(C)C)C(=O)N[C@@H](CC(C)C)C(=O)N[C@@H](Cc1cccc2ccccc12)C(=O)N[C@@H](CC(C)C)C(=O)[C@@]1(C)CO1 [P2 1-naphthyl]
29,000

Fill in the blank: the reported kobs/[I] for chymotryptic-like activity using Suc-LLVY-AMC of CC(=O)N[C@@H](CC(C)C)C(=O)N[C@@H](CC(C)C)C(=O)N[C@@H](Cc1ccccc1)C(=O)N[C@@H](CC(C)C)C(=O)[C@@]1(C)CO1 [Ac-LLFL-epoxide] is ____.
54,000

Record request: kobs/[I] for chymotryptic-like activity using Suc-LLVY-AMC value, item CC(=O)N[C@@H](C)C(=O)N[C@@H](CC(C)C)C(=O)N[C@@H](CC(C)C)C(=O)N[C@@H](CC(C)C)C(=O)[C@@]1(C)CO1 [Ac-ALLL-epoxide]
5,300

# input molecule: CC(=O)N[C@@H](CC(C)C)C(=O)N[C@@H](Cc1cccc2ccccc12)C(=O)N[C@@H](CC(C)C)C(=O)N[C@@H](CC(C)C)C(=O)[C@@]1(C)CO1 ; wanted: its kobs/[I] for chymotryptic-like activity using Suc-LLVY-AMC
31,000

Data request, read-out kobs/[I] for chymotryptic-like activity using Suc-LLVY-AMC, for CC(=O)N[C@@H](Cc1cccc2ccccc12)C(=O)N[C@@H](CC(C)C)C(=O)N[C@@H](CC(C)C)C(=O)N[C@@H](CC(C)C)C(=O)[C@@]1(C)CO1
29,000

Given the entry CC(=O)N[C@@H](Cc1ccc(C(=O)c2ccccc2)cc1)C(=O)N[C@@H](CC(C)C)C(=O)N[C@@H](CC(C)C)C(=O)N[C@@H](CC(C)C)C(=O)[C@@]1(C)CO1 , report its measured kobs/[I] for chymotryptic-like activity using Suc-LLVY-AMC.
23,000

Would you kindly share the measured kobs/[I] for chymotryptic-like activity using Suc-LLVY-AMC for CC(C)C[C@H](NC(=O)[C@@H](N)CCc1ccccc1)C(=O)N[C@@H](Cc1ccccc1)C(=O)N[C@@H](CC(C)C)C(=O)[C@@]1(C)CO1 ?
5200
